# System: RAGE signaling in THP-1 cells
# procedureDetails: Functional assay: TNF-alpha secretion by S100b-stimulated THP-1 cells
# Format: cell-based
# measurementConditions: Homo sapiens; THP-1 cells stimulated with bovine S100b 100 μg/mL; TNF-alpha measured by ELISA 24 hours after stimulation; read-out: EC50 for TNF expression
Counter-ions that a name gives are not always drawn.
quantityKind: pEC50
Remember the convention: pEC50 equals -log10 of concentration in molar.

Reported pEC50, compound CCCCc1nnc(OC2CCN(C)CC2)cc1-c1ccc(OC2CCCCC2)cc1 [Example 14, dihydrochloride] : ____ 5.90

----------
# targetOrSystem: sRAGE binding to β-amyloid (Homo sapiens)
# Construct: extracellular domain can be isolated by proteolysis of RAGE to generate soluble RAGE (sRAGE) comprised of the V and C domains
# procedureDetails: RAGE binding assay (ELISA), β-amyloid as the RAGE ligand
# measurementConditions: compounds tested in hydrochloride salt form, concentration at which 50% signal has been inhibited
Where a name gives a salt, the structure may show the parent alone.
Exercise: state measured pIC50 for each of the compounds provided.
Please express pIC50 as -log10 of the molar concentration.

Returns the measured pIC50 for the input compound. Input: CCCCc1nnc(OC2CCN(C)CC2)cc1-c1ccc(OC2CCCCC2)c(-c2cnn(C)c2)c1 [Example 69, dihydrochloride] 6.10

Using the record for CCCCc1nnc(OC2CCN(C)CC2)cc1-c1ccc(OC2CCCCC2)c(N(CC(C)C)S(C)(=O)=O)c1 [Example 64, dihydrochloride] , report its pIC50. 6.08

Look at this compound and give its reported pIC50. CCCCc1nnc(O[C@H]2CCN(C)C2)cc1-c1ccc(OC2CCCCC2)cc1 [Example 30, dihydrochloride] 5.59

Find the recorded pIC50 belonging to CCCCc1nnc(OC[C@H]2CCN(C)C[C@@H]2O)cc1-c1ccc(OC2CCCCC2)cc1 (racemic) [Example 25, dihydrochloride] and report it. 5.81

Name the reported pIC50 value associated with the compound CCCCc1nnc(OC2CCN(C)CC2)cc1-c1ccc(OC2CCCCC2)c(NC(C)=O)c1 [Example 62, dihydrochloride] 5.30

For the compound CCCCc1nnc(OC2CCN(CCc3nnc(C)o3)CC2)cc1-c1ccc(OC2CCCCC2)cc1 [Example 20, dihydrochloride] , what pIC50 is on record? 5.65

Can you share its pIC50? I mean this compound: CCCCc1nnc(C(=O)NCC2CN(C)CCC2OC)cc1-c1ccc(OC2CCCCC2)cc1 (centres unmarked) [Example 101, dihydrochloride] 6.03

Recorded pIC50 for CCCCc1nnc(OC[C@H]2CN(C)CC[C@@H]2OC)cc1-c1ccc(OC2CCCCC2)cc1 (racemic) [Example 46, dihydrochloride] , please? 5.90

For CCCCc1nnc(C(=O)NC[C@@H]2CCN(C)C[C@@H]2OC)cc1-c1ccc(OC2CCCCC2)cc1 (racemic) [Example 104, dihydrochloride] , what is its reported pIC50? 5.79

If you can, please state the reported pIC50 value of CCCCc1nnc(OCC[C@@H]2CCCCN2C)cc1-c1ccc(OC2CCCCC2)cc1 [Example 33, dihydrochloride] . 5.83

Which pIC50 value belongs to CCCCc1nnc(C(=O)NC[C@H]2CCN(C)C[C@H]2F)cc1-c1ccc(OC2CCCCC2)cc1 (racemic) [Example 110, dihydrochloride] ? 5.87

So what's the measured pIC50 for this one? CCCCc1nnc(OC2CCN(C)CC2)cc1-c1ccc(OCc2cccnn2)cc1 [Example 53, trihydrochloride] 5.69

Looking for the measured pIC50 of CCCCc1nnc(OCCN(CC)CC)cc1-c1ccc(OCc2ccccc2)cc1 [Example 3, dihydrochloride] , can you help? 5.64

Record request: pIC50 value, item CCCCc1nnc(OC2CCN(C)CC2)cc1-c1ccc(OC(C)C)cc1 [Example 49, dihydrochloride] 5.20

----------
# targetOrSystem: sRAGE binding to S100b (Homo sapiens, UniProt Q15109)
# Construct: extracellular domain can be isolated by proteolysis of RAGE to generate soluble RAGE (sRAGE) comprised of the V and C domains
# Sequence (Q15109 23-342 limits assumed): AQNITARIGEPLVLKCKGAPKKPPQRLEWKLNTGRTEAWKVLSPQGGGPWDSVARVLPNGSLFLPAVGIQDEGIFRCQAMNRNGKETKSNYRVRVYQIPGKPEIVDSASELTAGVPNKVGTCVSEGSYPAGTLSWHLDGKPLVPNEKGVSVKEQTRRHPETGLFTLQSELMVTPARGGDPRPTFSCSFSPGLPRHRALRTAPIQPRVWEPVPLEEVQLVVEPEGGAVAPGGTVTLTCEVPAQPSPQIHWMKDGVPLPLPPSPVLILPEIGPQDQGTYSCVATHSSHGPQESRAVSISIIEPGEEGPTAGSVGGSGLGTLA
# procedureDetails: RAGE binding assay (ELISA), S100b as the RAGE ligand
# measurementConditions: compounds tested in hydrochloride salt form, concentration at which 50% signal has been inhibited
pIC50: −log10 of the molar value. Where a name gives a salt, the structure may show the parent alone.
Class 1: pIC50 at least 6. Class -1: pIC50 below 6.

Threshold query (pIC50 >= 6) on CCCCc1nnc(OC2CCN(C)CC2)cc1-c1ccc(OC2CCCC2)cc1 [Example 51, dihydrochloride] -1

API: above_or_equal(metric=pIC50, cutoff=6) for item CCCCc1nnc(OCCN(CC)CC)cc1-c1ccc(OCc2ccccc2)cc1 [Example 3, dihydrochloride] -1

Can CCCCc1nnc(OCCCN2CCCCC2)cc1-c1ccc(OCc2ccccc2)cc1 [Example 5, dihydrochloride] be said to have pIC50 at or above 6? -1

Please indicate if the recorded pIC50 for CCCCc1nnc(OC2CCN(C)CC2)cc1-c1ccc(OC2CCCCC2)c(N2CCCC2=O)c1 [Example 68, dihydrochloride] meets or exceeds 6. -1

Would you say CCCCc1nnc(C(=O)NCC2CN(C)CCC2O)cc1-c1ccc(OC2CCCCC2)cc1 (stereo not shown) [Example 100, dihydrochloride] shows pIC50 at minimum 6? 1

----------
# targetOrSystem: sRAGE binding to β-amyloid (Homo sapiens, UniProt Q15109)
# Construct: extracellular domain can be isolated by proteolysis of RAGE to generate soluble RAGE (sRAGE) comprised of the V and C domains
# procedureDetails: RAGE binding assay (ELISA), β-amyloid as the RAGE ligand
# measurementConditions: compounds tested in hydrochloride salt form, concentration at which 50% signal has been inhibited
Where a name gives a salt, the structure may show the parent alone.
Assign IC50 to each entry below.
Lab book: enter the figure in µM, no units written.

Name the recorded IC50 for CCCCc1nnc(OC2CCN(C)CC2)cc1-c1ccc(OC2CCCC2)cc1 [Example 51, dihydrochloride] . 2.62

Tell me the measured IC50 of CCCCc1nnc(OC2CCN(CCC3OCCCO3)CC2)cc1-c1ccc(OC2CCCCC2)cc1 [Example 18, dihydrochloride] , please. 0.6

What value of IC50 has been recorded for this entry: CCCCc1nnc(OCC2CN(C)CCO2)cc1-c1ccc(OC2CCCCC2)cc1 (stereo not drawn) [Example 34, dihydrochloride] 2.58

Requested field: IC50. Item: CCCCc1nnc(OC2CCN(C)CC2)cc1-c1ccc(Oc2ccc(C)nn2)cc1 [Example 57, trihydrochloride] 4.56

// lookup IC50 for CCCCc1nnc(C(=O)NCCN2CCC(O)CC2)cc1-c1ccc(OC2CCCCC2)cc1 [Example 93, dihydrochloride] 2.51

Consider the molecule shown here: CCCCc1nnc(OC[C@H]2CCN(C)C[C@H]2O)cc1-c1ccc(OC2CCCCC2)cc1 (racemic) [Example 24, dihydrochloride] What is its recorded IC50? 2.9

Any idea what its IC50 is? The molecule is CCCCc1nnc(OC[C@H]2CCN(C)C[C@@H]2OC)cc1-c1ccc(OC2CCCCC2)cc1 (racemic) [Example 36, dihydrochloride] 0.96

// query IC50 value for entry CCCCc1nnc(OCCCN2CCCCC2)cc1-c1ccc(OCc2ccccc2)cc1 [Example 5, dihydrochloride] 6.28

Param item = CCCCc1nnc(OC2CCN(C)CC2)cc1-c1ccc(OC2CCCCC2)c(C2=NC(C)(C)CO2)c1 [Example 76] ; retrieve measured IC50. 6.78

What does the record list as IC50 for CCCCc1nnc(O[C@H]2CC3C[C@@H](O)C(C2)N3C)cc1-c1ccc(OC2CCCCC2)cc1 (stereo partly drawn) [Example 31, dihydrochloride] ? 1.18

Can you share its IC50? I mean this molecule: CCCCc1nnc(OC[C@H]2CN(C)C[C@@H]2CO)cc1-c1ccc(OCc2ccccc2)cc1 (racemic) [Example 6, dihydrochloride] 2.33

Any idea what IC50 was measured for CCCCc1nnc(OC2CCN(C)CC2)cc1-c1ccc(OC2CCCCC2)c(C#N)c1 [Example 67, dihydrochloride] ? 3.2

Which measured IC50 value corresponds to CCCCc1nnc(OC2CCN(CCOC)CC2)cc1-c1ccc(OC2CCCCC2)cc1 [Example 23, dihydrochloride] ? 1.11

Please give the measured IC50 for this molecule: CCCCc1nnc(C(=O)N[C@@H]2CCN(C)C[C@@H]2OC)cc1-c1ccc(OC2CCCCC2)cc1 (stereo in doubt) [Example 107, dihydrochloride] 0.56

Need IC50 of CCCCc1nnc(C(=O)N[C@@H]2CN3CCC2CC3)cc1-c1ccc(OC2CCCCC2)cc1 [Example 85, dihydrochloride] , thanks. 1.97

What value of IC50 has been reported for the following molecule? CCCCc1nnc(C(=O)NC[C@@H]2CCCN2CC)cc1-c1ccc(OC2CCCCC2)cc1 [Example 92, dihydrochloride] 1.02

IC50 lookup needed for CCCCc1nnc(C(=O)N2CCC(CN(C)C)C(F)(F)C2)cc1-c1ccc(OC2CCCCC2)cc1 (stereo not drawn) [Example 105, dihydrochloride] , thanks. 2.12

# query: IC50 of entry CCCCc1nnc(C(=O)NCC2CN(C)CCC2(F)F)cc1-c1ccc(OC2CCCCC2)cc1 (stereo not drawn) [Example 99, dihydrochloride] 1.81

Record request: IC50 value, item CCCCc1nnc(OC2CCN(C)CC2)cc1-c1ccc(OC2CCCCC2)c(C(C)=O)c1 [Example 66] 1.83

// returns reported IC50 for input CCCCc1nnc(C(=O)N[C@H]2CN3CCC2CC3)cc1-c1ccc(OCc2ccccc2)cc1 [Example 83, dihydrochloride] 1.13

Given the entry CCCCc1nnc(OCC2CN(C)CCC2(F)F)cc1-c1ccc(OC2CCCCC2)cc1 (stereo not drawn) [Example 39, dihydrochloride] , report its measured IC50. 1.5

Bench note: what IC50 did CCCCc1nnc(C(=O)N2CC[C@@H](CN(C)C)[C@@H](OC)C2)cc1-c1ccc(OC2CCCCC2)cc1 (racemic) [Example 102, dihydrochloride] show? 1.46

IC50 for CCCCc1nnc(C(=O)NC2CC3CCC(C2)N3C)cc1-c1ccc(OC2CCCCC2)cc1 (stereo not drawn) [Example 96, dihydrochloride] ? 0.94

For the molecule CCCCc1nnc(OC2CCN(C)CC2)cc1-c1ccc(OC2CCCCC2)c(-c2ncco2)c1 [Example 65, dihydrochloride salt] , what IC50 is on record? 1.78

Which IC50 is listed for CCCCc1nnc(C(=O)NCC2CN(C)CCC2O)cc1-c1ccc(OC2CCCCC2)cc1 (stereo not drawn) [Example 100, dihydrochloride] ? 1.16

Query (molecule): CCCCc1nnc(C(=O)NC[C@H](O)CN(C)C)cc1-c1ccc(OC2CCCCC2)cc1 [Example 87, dihydrochloride] ; field requested: IC50 2.43

Fill in the blank: the reported IC50 of CCCCc1nnc(C(=O)NCC2(O)CCN(C)CC2)cc1-c1ccc(OC2CCCCC2)cc1 [Example 94, dihydrochloride] is ____. 1.95
